- testedOn: human α1G T-type channels (Homo sapiens, UniProt O43497)
- Sequence (O43497 whole entry): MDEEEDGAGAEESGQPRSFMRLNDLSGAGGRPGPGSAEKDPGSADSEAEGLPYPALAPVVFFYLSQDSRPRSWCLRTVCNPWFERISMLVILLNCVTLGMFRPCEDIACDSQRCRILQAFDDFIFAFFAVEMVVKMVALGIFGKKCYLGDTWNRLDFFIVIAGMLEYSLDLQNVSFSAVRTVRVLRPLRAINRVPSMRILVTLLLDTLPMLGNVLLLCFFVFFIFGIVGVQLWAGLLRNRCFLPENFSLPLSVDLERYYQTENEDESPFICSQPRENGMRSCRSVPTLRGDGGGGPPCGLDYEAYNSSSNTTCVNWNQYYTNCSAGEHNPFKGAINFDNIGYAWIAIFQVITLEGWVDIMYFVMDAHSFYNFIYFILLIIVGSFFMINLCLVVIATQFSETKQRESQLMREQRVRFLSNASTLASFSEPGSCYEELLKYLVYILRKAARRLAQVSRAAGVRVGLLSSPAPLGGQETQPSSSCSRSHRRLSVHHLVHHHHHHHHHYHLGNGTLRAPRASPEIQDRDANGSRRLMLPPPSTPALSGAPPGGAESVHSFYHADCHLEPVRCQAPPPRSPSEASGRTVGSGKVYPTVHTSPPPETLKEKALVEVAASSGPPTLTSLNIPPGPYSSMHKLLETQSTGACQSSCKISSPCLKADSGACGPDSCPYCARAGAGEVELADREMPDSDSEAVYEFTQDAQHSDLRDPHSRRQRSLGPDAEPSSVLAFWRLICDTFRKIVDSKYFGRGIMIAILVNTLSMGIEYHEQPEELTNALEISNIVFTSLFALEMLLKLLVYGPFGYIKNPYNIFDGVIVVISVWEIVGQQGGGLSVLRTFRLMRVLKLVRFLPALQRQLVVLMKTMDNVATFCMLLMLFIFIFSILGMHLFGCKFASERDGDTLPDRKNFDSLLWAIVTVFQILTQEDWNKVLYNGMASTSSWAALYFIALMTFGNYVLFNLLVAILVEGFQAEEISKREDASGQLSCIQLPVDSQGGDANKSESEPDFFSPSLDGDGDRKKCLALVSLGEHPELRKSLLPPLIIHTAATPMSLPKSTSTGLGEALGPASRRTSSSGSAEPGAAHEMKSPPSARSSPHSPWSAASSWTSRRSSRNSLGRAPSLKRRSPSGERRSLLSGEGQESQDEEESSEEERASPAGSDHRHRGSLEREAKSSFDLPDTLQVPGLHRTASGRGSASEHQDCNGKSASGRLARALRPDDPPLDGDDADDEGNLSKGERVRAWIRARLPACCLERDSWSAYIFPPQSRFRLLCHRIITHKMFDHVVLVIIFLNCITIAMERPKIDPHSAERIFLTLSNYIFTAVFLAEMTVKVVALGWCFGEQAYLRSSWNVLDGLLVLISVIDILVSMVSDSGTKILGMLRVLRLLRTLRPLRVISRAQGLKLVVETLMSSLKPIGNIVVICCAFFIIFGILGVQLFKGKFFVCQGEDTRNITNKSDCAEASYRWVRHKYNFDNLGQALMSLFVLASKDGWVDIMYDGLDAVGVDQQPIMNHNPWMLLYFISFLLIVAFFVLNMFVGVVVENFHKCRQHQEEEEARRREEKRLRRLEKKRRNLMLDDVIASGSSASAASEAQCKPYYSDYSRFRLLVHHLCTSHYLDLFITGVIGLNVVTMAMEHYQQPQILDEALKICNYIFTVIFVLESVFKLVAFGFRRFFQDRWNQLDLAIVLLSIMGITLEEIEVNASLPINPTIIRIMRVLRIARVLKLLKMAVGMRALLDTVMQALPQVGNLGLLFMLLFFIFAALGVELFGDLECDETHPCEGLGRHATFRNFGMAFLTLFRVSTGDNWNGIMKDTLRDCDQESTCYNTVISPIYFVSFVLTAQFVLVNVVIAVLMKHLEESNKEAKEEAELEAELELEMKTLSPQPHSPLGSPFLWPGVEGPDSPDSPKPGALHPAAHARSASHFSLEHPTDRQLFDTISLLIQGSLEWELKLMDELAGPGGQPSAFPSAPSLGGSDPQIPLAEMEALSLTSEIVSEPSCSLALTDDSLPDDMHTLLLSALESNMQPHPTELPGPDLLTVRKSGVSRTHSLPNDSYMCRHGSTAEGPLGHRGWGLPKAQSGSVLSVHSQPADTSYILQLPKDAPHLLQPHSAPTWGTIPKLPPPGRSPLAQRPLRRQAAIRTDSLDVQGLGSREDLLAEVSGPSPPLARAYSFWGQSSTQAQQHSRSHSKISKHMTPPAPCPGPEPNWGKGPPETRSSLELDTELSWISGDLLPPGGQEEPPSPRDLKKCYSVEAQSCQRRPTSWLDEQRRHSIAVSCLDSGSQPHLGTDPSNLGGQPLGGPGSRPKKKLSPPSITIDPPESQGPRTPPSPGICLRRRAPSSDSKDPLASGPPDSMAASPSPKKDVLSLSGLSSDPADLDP
- experimentNotes: T-type calcium channel block, whole cell patch clamp (α1G)
- particulars: HEK cells stably expressing human α1G; mainly non-inactivated protocol; values above 10 μM represented as 10 μM, values below 0.30 μM represented as 0.30 μM
- Description: T-type calcium channel blocking activity was assayed in human embryonic kidney cells, HEK 293, stably transfected with the T-type calcium channel subunits. […] Standard patch-clamp techniques were employed to identify blockers of T-type currents. […] Data were analyzed using Clampfit (Axon Instruments) and SigmaPlot 4.0 (Jandel Scientific). […]
measurementKind: IC50 (nM)

In the examples that follow, each entry is paired with its recorded IC50.
[[record]]
compound = "CC(C)(C)OC(=O)N[C@H]1CC[C@@H](CC(=O)Nc2cc(C(F)(F)F)cc(C(F)(F)F)c2)CC1"
measurementkind = "IC50"
observedmeasurement = 650

[[record]]
compound = "O=C(CNC[C@H]1CC[C@H](NC(=O)c2cc(C(F)(F)F)cc(C(F)(F)F)c2)CC1)NCC(F)(F)F"
measurementkind = "IC50"
observedmeasurement = 2540


A. O=C(C[C@H]1CC[C@@H](NC(=O)[C@@H]2CCCN2)CC1)Nc1cc(C(F)(F)F)cc(C(F)(F)F)c1
B. CC(C)CNC(=O)CN[C@H]1CC[C@H](CNC(=O)c2cc(C(F)(F)F)cc(C(F)(F)F)c2)CC1
input: Which of the two items, A and B , has the greater recorded IC50? State the label of the item chosen.
output: A
(A: 1900 nM, B: 810 nM)
